Assay: inhibitors of the yeast RAM network, pilot screen, dse1pr::URA3 reporter, 5-FOA selection (AID 869);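 further: 0% = DMSO wells with no growth and 100% = 10 µM 1-NA-PP1 with full growth; RAM network block rescues cells from 5-FOA so hits raise OD615 growth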
Settings: S. cerevisiae dse1pr::URA3 5-FOA growth, OD615, 2 d; at 10 µM; active compounds read high; strain carries analog-sensitive mutant Cbk1 kinase
Active and inactive are the calls of the source.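 How the source made its calls: active means inhibition over a set limit, the all-compound mean plus 3 SD, in both replicate runs; inconclusive means over that limit in just one replicate run; inactive means at or under that limit in both runs.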

Compound	inhibition
COCC(C)N=Cc1c(O)[nH]c2ccccc12 (stereo unspecified)	0.82% (inactive)
O=C1CC(c2ccco2)CC(O)=C1C=NCCO (stereo unspecified)	1.79% (inactive)
O=C(CCC(=O)OCCCC(F)(F)C(F)(F)F)Nc1ccccc1	0.785% (inactive)
CCCCOc1ccc(C2(C)CC(=O)NC2=O)cc1 (stereo unspecified)	0.425% (inactive)
O=C(NCCc1ccccc1)C1CCN(S(=O)(=O)c2cccnc2)CC1	1.88% (inactive)
C#CCn1c(=NC(=O)CN2C(=O)CCC2=O)sc2cccc(C)c21	1.89% (inactive)
